Reference source: patent US7064117B2

For each of the compounds below, state its melting point.

// below: answered compounds
- compound: "CN(C)CCOC1(O)C=CC2=NC(C(=O)N3CC(CCl)c4c3ccc3ncccc43)=CC2=C1 (centres unmarked)"
  recorded endpoint: "melting point"
  reported: "176 to 179 °C"
- compound: "COc1ccc2[nH]c(C(=O)N3CC(CCl)c4c3cc(O)c3ncccc43)cc2c1 (centres unmarked)"
  recorded endpoint: "melting point"
  reported: "186 to 189 °C"
- compound: "COc1cc2cc(C(=O)N3CC(CCl)c4c3cc(NCCN)c3ccccc43)[nH]c2c(OC)c1OC.Cl.Cl (centres unmarked)"
  recorded endpoint: "melting point"
  reported: "> 200 °C"
- compound: "Cl.Cl.Cl.Cl.O=S(=O)(O)CCCCN1CCNCCNCCNCC1"
  recorded endpoint: "melting point"
  reported: "301 to 303 °C"

State recorded melting point for all listed compounds.
1. COc1cc2cc(C(=O)N3CC(CCl)c4c3cc(N)c3ncccc43)[nH]c2c(OC)c1OC (centres unmarked)
2. COc1ccc(/C=C/C(=O)N2CC(CCl)c3c2cc(O)c2ncccc32)cc1O (centres unmarked)
3. Cl.Cl.Cl.Cl.O=S(=O)(O)CCCN1CCNCCN(CCCS(=O)(=O)O)CCNCC1
4. COc1ccc(/C=C/C(=O)N2CC(CCl)c3c2cc(O)c2ncccc32)cc1 (centres unmarked)

1: 258 to 263 °C; 2: 215 to 218 °C; 3: 279 to 281 °C; 4: 208 to 211 °C
